Entry source: patent US20120213766A1

# System: melanoma cancer cell line A375
# Experiment Description: Cell proliferation assay (WST-1, 72 h)
# Format: cell-based
# Assay Setup: A-375, Human melanoma A375, average of two runs
pIC50: −log10 of the molar value.
Measure Name: pIC50

I. C=CC(C)(CC(O)C(O)C(=C)C=O)C(O)C(C(=C)C(C)=O)C(=C)C(=O)CCO (centres unmarked)
II. C=C1COC(O)/C(C(O/C=C(\C)C=O)C(=C)C(=O)O)=C\CCCC(O)C1=O (centres unmarked)
Prompt: Between I and II , which one shows the larger pIC50 value? State the label of the item chosen.
Response: I
